- Experimental Target: Nano-lantern (ATP1)
- Cond: 20 nM protein, 50 mM HEPES pH 7.2, coelenterazine-h 1-10 μM
Recorded Endpoint: Kd (µM)

INSERT INTO assay_data (smiles_data, unit_name, numeric_readout) VALUES
  ('Nc1ncnc2c1ncn2[C@@H]1O[C@H](COP(=O)(O)OP(=O)(O)OP(=O)(O)O)[C@@H](O)[C@H]1O', 'µM', 300);
